Assay: Nuclear factor erythroid 2-related factor 2/antioxidant responsive element (Nrf2/ARE) small molecule agonists: luciferase reporter gene qHTS assay in human keratinocytes (AID 1919969); further: nearly all actives have a fitted effect of over 35% in size; further: potency means the concentration at half of the fitted maximal effect
Conditions: KeratinoSens HaCaT ARE-luciferase, luminescence, 24 h; series mostly up to 92.4 µM
Results filed as inconclusive are left out. Activity calls are given as the source filed them. The call rests on the fitted dose curve.
Endpoint: Potency

Consider the worked cases shown below.
Compound	Value Measured
O=c1oc2ccccc2c(O)c1C1CCCc2ccccc21 (stereo unspecified)	inactive
N#Cc1c[nH]cc1-c1cccc2c1OC(F)(F)O2	inactive
CNC(=O)Oc1cc(C)cc(C(C)C)c1	inactive
CN(N=O)c1ccc([N+](=O)[O-])cc1	inactive
COc1cccc(C(=O)CCN[C@@H](C)[C@H](O)c2ccccc2)c1	33.5 µM (active)

Ask: Dear colleague, I am looking for the recorded Potency of the following compound: C[C@@H]1CC[C@@]2(OC1)O[C@H]1[C@@H](O)[C@H]3[C@@H]4CC[C@H]5C[C@@H](O[C@@H]6O[C@H](CO)[C@H](O[C@@H]7O[C@H](CO)[C@@H](O)[C@H](O[C@@H]8OC[C@@H](O)[C@H](O)[C@H]8O)[C@H]7O[C@@H]7O[C@H](CO)[C@@H](O)[C@H](O[C@@H]8O[C@H](CO)[C@@H](O)[C@H](O)[C@H]8O)[C@H]7O)[C@H](O)[C@H]6O)[C@H](O)C[C@]5(C)[C@H]4CC[C@]3(C)[C@H]1[C@@H]2C
Result: inactive
